Test system: U-251
Test: NCI tumour cell line growth inhibition, 48 h
The source made the active and inactive calls. No stated cut-off is given here; in the data, active = GI50 up to about 1.1 µM and inactive = higher.
Outcome codes: True (active), False (inactive)

* O=c1cc(N2CCOCC2)[nH]c(=O)n1-c1ccc(F)cc1 | False
* CCOC(=O)Cc1cc(=O)oc2cc(O)ccc12 | False
* COC(=O)C(C/C=C(\C)c1ccccc1)C(C)=O (stereo not given) | False
* C#CCNC(=O)ON1C(=O)CCC1=O | False
* CSc1c(C#N)c(=O)n(N)c2[nH]nc(C)c12 | False
* CSC1=N/C(=C\c2ccc(C)cc2)C(=O)N1CN1CCCCC1 | False
* COc1cc(C2C(Cl)C(=O)N2NC(=O)c2ccc(NC(C)=O)cc2)cc(Br)c1O (stereo not given) | False
* c1ccc([P+](CCC[P+](c2ccccc2)(c2ccccc2)c2ccccc2)(c2ccccc2)c2ccccc2)cc1 | False
* Cc1cc2c(C)nn(Cc3ccccc3)c2c(C(N)=O)c1C | False
* CC1(C)O[C@H]2Cn3c(c(C#N)c4ccccc43)[C@H]2O1 | False
* CC(C)C1OC2(C)OC(=N)C1(C#N)C(C#N)(C#N)C2C (stereo not given) | False
* Cc1c2c(c(C)c3c1[nH]c1ccccc13)CN(C)CC2 | False
* COc1ccc(C(=O)N=C2N(c3ccccc3)C(=N/c3ccccc3)/C(=N\c3ccccc3)N2c2ccccc2)cc1 | False
* O=C(Nc1cccc(O)c1)C(=O)C1C(=O)NC(=S)NC1=O | False
* O=C(Nc1ccccc1)N1CC(CN2CCN(c3ccccc3)CC2)OC1=O (stereo not given) | False
* Clc1ccc(Cc2nc3cc(Cl)c(Cl)cc3n2CC2CCCN3CCCCC23)cc1 (stereo not given) | False
* O=C1OC(c2ccco2)=N/C1=C\c1ccc(Cl)c(Cl)c1 | False
* COc1ccc2c(c1)CC[C@@H]1[C@@H]2CC[C@]2(C)C(=O)/C(=C/c3ccc(O)c(OC)c3)C[C@@H]12 | False
* CCOC(=O)c1sc2nc(SC)nc3c2c1NCN3C | False
* CC(C)Oc1c(O)c2c3c(oc(=O)n3C=CC2c2ccccc2F)c1OC(C)C (stereo not given) | False
* COC(=O)c1ccccc1CC1Cc2cccc(C)c2C1=O (stereo not given) | False
* O=S(=O)(O)c1ccc2c(/N=N/c3ccc(Sc4ccc(/N=N/c5c(O)ccc6cc(S(=O)(=O)O)ccc56)cc4)cc3)c(O)ccc2c1 | False
* Cc1ccc(C)c(NC(=O)C(=O)CC(=O)C2CCOC2=O)c1 (stereo not given) | False
* [N-]=[N+]=N[C@H]1C[C@@H](CO)O[C@H]1n1cnc2c(N)ncnc21 | False
* CCOC(=O)CCC1(C(=O)OC)CCCC1=O (stereo not given) | False
* O=S(=O)(O)c1cc(O)c2c(O)c(/N=N/c3ccc(/C=C/c4ccc(/N=N/c5c(S(=O)(=O)O)cc6cc(S(=O)(=O)O)cc(O)c6c5O)cc4S(=O)(=O)O)c(S(=O)(=O)O)c3)c(S(=O)(=O)O)cc2c1 | False
* COc1cccc(-c2nc3c(C(=O)NCCN(C)C)cccc3[nH]2)c1 | False
* NCc1ccccc1C1CSCSC1 | False
* CCOP(=O)(C/C=C/Cn1nc(Br)c(=O)[nH]c1=O)OCC | False
* COc1cc(CC(C)N)ccc1O (stereo not given) | False
* CCOC(=O)C(Cc1ccc([N+](=O)[O-])cc1)NC(=O)CC1c2ccccc2-c2ccccc21 (stereo not given) | False
* CO[C@@H]1/C=C\C=C(/C)C(=O)NC2=CC(=O)C(NCCN(C)C)=C(C[C@@H](C)C[C@@H](OC)[C@@H](O)[C@H](C)/C=C(\C)[C@H]1OC(N)=O)C2=O | True
* Cc1ccc(C(=O)OCC(C)C)cc1/N=N/N(C)C | False
* CC/C(=N\NC(=O)c1cccnc1)c1ccc2c(c1)OCCO2 | False
* COc1ccc(C23OCC(Cc4cc(OC)c(OC)cc42)C3CO)cc1OC (stereo not given) | False

====

Test system: HOP-62
Assay: NCI tumour cell line growth inhibition, 48 h
The source made the active and inactive calls. Cut-off read from the data, not from the text of the source: active = GI50 up to about 1.1 µM and inactive = higher.
MEASURE: GI50

* O=C(Cn1ccnc1[N+](=O)[O-])N(CCO)CCO | > 250 µM (inactive)
* c1ccc([P+](CCC[P+](c2ccccc2)(c2ccccc2)c2ccccc2)(c2ccccc2)c2ccccc2)cc1 | 49.3 µM (inactive)
* C(=N\c1ccc(-c2nc3ccccc3[nH]2)cc1)/c1cccs1 | > 100 µM (inactive)
* CC1=NN2C(=N)/C(=C/c3ccco3)C(=O)N=C2S1 | > 100 µM (inactive)
* Nc1ccc(-c2nc3ccccc3s2)cc1 | 36.9 µM (inactive)
* O=C(O)CCSC(=O)Nc1cccc(F)c1 | 14.3 µM (inactive)

====

System: SW-620
Assay: NCI tumour cell line growth inhibition, 48 h
Active and inactive are the calls of the source. Cut-off read from the data, not from the text of the source: active = GI50 up to about 1.1 µM and inactive = higher.
MEASURE: GI50

• CC(C)/C(Cl)=N/OC(=O)Nc1ccc(OC(F)(F)F)cc1 = 1.77 µM (inactive)
• O=C(O)C1Cc2[nH]cnc2CN1 (centres undefined) = > 100 µM (inactive)
• CC1(C)C2CC3C4CC5(Nc6ccccc6C5N41)[C@]3(C)CC2=O (some centres undefined) = > 50 µM (inactive)
• C(=N\c1ccc(-c2nc3ccccc3[nH]2)cc1)/c1ccc[nH]1 = 73.3 µM (inactive)
• CSC1=N/C(=C\c2ccc(C)cc2)C(=O)N1CN1CCCCC1 = 44.7 µM (inactive)
• CCOC(=O)C1N(S(=O)(=O)c2ccc(C)cc2)CCC12C(c1ccc(OC)cc1)NC1CCCCC12 (centres undefined) = > 100 µM (inactive)
• O=C(c1ccccc1O)c1cc(-c2ncc3c(=O)c4ccccc4oc3n2)c(-c2ccccc2O)[nH]c1=O = 19.2 µM (inactive)
• CCOC(=O)/C(C(N)=O)=C(O)/C(O)=C(\Br)C(=O)c1ccccc1 = 9.66 µM (inactive)
• O=C(Cc1nc2ccccc2c(=O)n1-c1c(Cl)cccc1Cl)c1ccncc1 = 36.6 µM (inactive)

====

Tested on: OVCAR-4
Test: NCI tumour cell line growth inhibition, 48 h
Activity calls are given as the source filed them. Cut-off read from the data, not from the text of the source: active = GI50 up to about 1.1 µM and inactive = higher. Where a SMILES comes first, the peptide text is derived from it. [ ]: non-standard residue; d: D form. The star is where a group is joined. ξ: configuration not given here. X4 = COc1ccc(C(N*)c2ccc(OC)cc2)cc1; NMeF = CN[C@@H](Cc1ccccc1)C(=O)O; NMeD = CN[C@@H](CC(=O)O)C(=O)O; NMeV = CN[C@H](C(=O)O)C(C)C; ξNMeV = CNC(C(=O)O)C(C)C; Boc = CC(C)(C)OC(=O)*; ξNMeA = CNC(C)C(=O)O; ξV = CC(C)C(N)C(=O)O
Listed next: entries and their corresponding GI50.
MEASURE: GI50

- CCOP(=O)(C/C=C/Cn1nc(Br)c(=O)[nH]c1=O)OCC: > 100 µM (inactive)
- CC(C)(C)c1cc(C(OCCl)(C(F)(F)F)C(F)(F)F)c2c(c1)C(C(F)(F)F)(C(F)(F)F)OC21c2ccccc2C(=O)c2ccccc21: > 100 µM (inactive)
- COc1ccc(C(NC(=O)C[C@@H](C(=O)N(C)C(C)C(=O)O)N(C)C(=O)[C@@H]2CCCN2C(=O)[C@H](C(C)C)N(C)C(=O)C(C(C)C)N(C)C(=O)[C@H](Cc2ccccc2)N(C)C(=O)C(NC(=O)OC(C)(C)C)C(C)C)c2ccc(OC)cc2)cc1 (stereo partly drawn) (Boc-[ξV][NMeF][ξNMeV][NMeV]P[NMeD](X4)[ξNMeA]-OH): 17.5 µM (inactive)

====

Tested on: OVCAR-8
Test: NCI tumour cell line growth inhibition, 48 h
Calls of active or inactive are those of the source. Cut-off read from the data, not from the text of the source: active = GI50 up to about 1.1 µM and inactive = higher.
MEASURE: GI50

* COc1cc2c(cc1OC)NC(=O)NC(Cc1ccc3c(c1)OCO3)CC2 (stereo not given) | > 100 µM (inactive)
* N#Cc1cc(N(CCCl)CCCl)c([N+](=O)[O-])cc1[N+](=O)[O-] | > 100 µM (inactive)
* c1ccc2c(c1)[nH]c1c2cc[n+]2cc3c(cc12)CCCC3 | 2.42 µM (inactive)
* CCOC(=O)CCC1(C(=O)OC)CCCC1=O (stereo not given) | > 100 µM (inactive)
* Cc1cn(CC2=NCC(C)(C)N2)c(=O)[nH]c1=O | > 100 µM (inactive)
* CCOC(=O)C(Cc1ccc([N+](=O)[O-])cc1)NC(=O)CC1c2ccccc2-c2ccccc21 (stereo not given) | 63.8 µM (inactive)
* O=C(CCCCCCCCCCc1ccccc1)c1c(O)cccc1O | 20.7 µM (inactive)
* CCc1nc(N)c2nc(-c3ccc(C#N)cc3)oc2n1 | > 100 µM (inactive)
* Cc1c2c(c(C)c3c1[nH]c1ccccc13)CN(C)CC2 | 16.4 µM (inactive)
* Cc1ccc(NC(=O)CCc2nnc3s/c(=C\C=C\c4ccccc4)c(=O)n23)cc1 | 31.3 µM (inactive)
* COc1cc(C2c3cc4c(cc3[C@@H](Nc3ccc(F)cc3)C3COC(=O)[C@H]23)OCO4)cc(OC)c1O (stereo not given in full) | 2.53 µM (inactive)
* CC(C)/C(Cl)=N/OC(=O)Nc1ccc(OC(F)(F)F)cc1 | 18.1 µM (inactive)
* COc1ccc(N2C(=O)C3c4[nH]c5ccccc5c4C4CCCCCCC4C3C2=O)cc1 (stereo not given) | 3.8 µM (inactive)
* NS(=O)(=O)c1ccc(/N=N/c2cc3ccccc3c(C(=O)O)c2O)cc1 | > 56.8 µM (inactive)
* CCOC(=O)c1nc2ccc(C(F)(F)F)cc2nc1Oc1ccc(C(=O)OC)cc1 | > 100 µM (inactive)
* CC(C)C1OC2(C)OC(=N)C1(C#N)C(C#N)(C#N)C2C (stereo not given) | 25.8 µM (inactive)
* Cc1ccc(NC(=O)C2C(=O)N(c3ccc(C)c(C)c3)C(=O)/C2=N\NC(N)=O)cc1C (stereo not given) | 62.2 µM (inactive)
* COc1ccccc1NC(=O)C1=C(C)NC(C)=C(C(=O)Nc2ccccc2OC)C1c1cccc2ccccc12 | > 100 µM (inactive)
* CCn1nc(C)c2c1C(=O)NCC(=O)N2 | > 100 µM (inactive)
* Cc1ccnc(NC(=S)Nc2ccccc2Cl)c1 | 77.8 µM (inactive)
* Nc1nc(Cl)cc(NCC2(CO)CCCCC2)n1 | > 100 µM (inactive)
* Cc1ccc2occ/c(=N\Nc3ccccc3)c2c1 | 72.9 µM (inactive)
* COc1ccc(CC2(Cc3ccc(OC)cc3)CCOC2=O)cc1 | > 100 µM (inactive)
* C[C@@H](C(=O)O)c1ccc(-c2ccccc2)c(F)c1 [TARENFLURBIL] | > 100 µM (inactive)
* Cn1c(NNc2ccccc2)cc(=O)[nH]c1=O | 29.8 µM (inactive)
* [N-]=[N+]=N[C@H]1C[C@@H](CO)O[C@H]1n1cnc2c(N)ncnc21 | > 100 µM (inactive)
* CC/C(=N\NC(=O)c1cccnc1)c1ccc2c(c1)OCCO2 | > 100 µM (inactive)
* C(=N\c1ccc(-c2nc3ccccc3[nH]2)cc1)/c1cccs1 | 49.9 µM (inactive)
* O=C(CNCc1ccccc1)Oc1c(Cl)c(Cl)c(Cl)c(Cl)c1Cl | 21.4 µM (inactive)
* CCOC(=O)NNC(=O)NCc1ccccc1CNC(=O)NNC(=O)OCC | > 100 µM (inactive)
